# Relative Viability (%) ± SD listing for each entry below
system: human monocyte-derived dendritic cells (moDCs); experiment: DAMP screen: viability of human moDCs (CellTiter-Glo); conditions: 41.3 μM lipid + LPS 1 μg/mL, 2 days; relative to LPS-treated moDCs; Table 1-2
VALUE_KIND: Relative Viability (%) ± SD

CCCCCCCCCCCCCCCCCCCCCC(=O)OC[C@@H](O)COP(=O)([O-])OCC[N+](C)(C)C ... 47.6
CCCCCCCC(=O)OC[C@@H](O)COP(=O)([O-])OCC[N+](C)(C)C ... 96.7
CCCCCCCCCCCCCCCC(=O)OC[C@H](COP(=O)([O-])OCC[N+](C)(C)C)OC(=O)CCCC(=O)O [PGPC, reference compound] ... 87.2
CCCCCCCC/C=C\CCCCCCCC(=O)O[C@H](COC(=O)CCCCCCCCCCCCCCC)COP(=O)([O-])OCC[N+](C)(C)C ... 96.5
CCCCCCCCCCCCCCCCCCCCCCCC(=O)OC[C@@H](O)COP(=O)([O-])OCC[N+](C)(C)C ... 94.6
CCCCCCCCCCCCCCCCCCCCCCCCCC(=O)OC[C@@H](O)COP(=O)([O-])OCC[N+](C)(C)C ... 93.3
CCCCCCCCCCCCCCCCCCCC(=O)OC[C@@H](O)COP(=O)([O-])OCC[N+](C)(C)C ... 75.2
CCCCCCCCCCCCCCCC(=O)OC[C@@H](O)COP(=O)([O-])OCC[N+](C)(C)C ... 87.2
CCCCCC/C=C\CCCCCCCCC(=O)OC[C@@H](O)COP(=O)([O-])OCC[N+](C)(C)C ... 97.2
CCCCCCCCCCCCCCCCCC(=O)O[C@H](COC(=O)CCCCCCCCCCCCC)COP(=O)([O-])OCC[N+](C)(C)C ... 100.0
CCCCCCCCC(=O)OC[C@@H](O)COP(=O)([O-])OCC[N+](C)(C)C ... 98.2
CCCCCCCCCCCC(=O)OC[C@@H](O)COP(=O)([O-])OCC[N+](C)(C)C ... 96.6
CCCCCCCCCC(=O)OC[C@@H](O)COP(=O)([O-])OCC[N+](C)(C)C ... 97.8
CCCCCCCCCCCCCCCCCC(=O)OC[C@H](COP(=O)([O-])OCC[N+](C)(C)C)OC(=O)CCCCCCCCCCCCC ... 98.1

----------
tested on: human monocyte-derived dendritic cells (moDCs); assay: DAMP screen: viability of human moDCs (CellTiter-Glo); settings: 41.3 μM lipid + LPS 1 μg/mL, 2 days; relative to LPS-treated moDCs; Table 1-2
Here, each record is paired with measured Relative Viability (%) ± SD data.
VALUE_KIND: Relative Viability (%) ± SD

CCCCCCCCCCCCCCCC(=O)OC[C@H](COP(=O)([O-])OCC[N+](C)(C)C)OC(=O)CCCCCCCCCCC(CCCCCC)OC(=O)CCCCCCCCCCCCCCC (stereo partly drawn) ... 98.3
CCCCCCCCCCCCCCCCCC(=O)OC[C@H](COP(=O)([O-])OCC[N+](C)(C)C)OC(=O)CCCCCCCCCCCCCCC ... 100.3
CCCCCCCCCCCCCCCC(=O)OC[C@H](COP(=O)([O-])OCC[N+](C)(C)C)OC(=O)CCCCCCCC(=O)O [PAzePC, reference compound] ... 95.6
CCCCCCCC/C=C\CCCCCCCC(=O)OC[C@@H](O)COP(=O)([O-])OCC[N+](C)(C)C ... 97.8
CCCCCCCCCCC(=O)OC[C@@H](O)COP(=O)([O-])OCC[N+](C)(C)C ... 94.9
CCCCCCCCCCCCCCCC(=O)OC[C@H](COP(=O)([O-])OCC[N+](C)(C)C)OC(=O)CCCCCCCCCCCCC ... 101.0

The origin of these recorded values is patent US20240197869A1.
